These data points were gathered from ChEMBL document CHEMBL3407436.

assay.overview: Cytotoxicity against mouse RAW264.7 cells at 50 uM after 48 hrs by MTT assay
Type: cell-based
condition.description: read-out: INH
# cytotoxicity at 48 h, 50 µM annotations
Provide only the numeric value, understood in %.

Known results for compounds:
cpd.smiles: N=C1S/C(=C\c2ccc(OCc3ccccc3)cc2)C(=O)N1c1ccc([N+](=O)[O-])cc1
measured: 17.3
//
cpd.smiles: CN1CCc2c(sc(NC(=O)c3ccc(Oc4ccccc4)cc3)c2C(N)=O)C1
measured: 58.9
//
cpd.smiles: Cc1c(Cl)cccc1N1C(=N)S/C(=C\c2ccc(OCc3ccccc3)cc2)C1=O
measured: 59.7
//
cpd.smiles: N=C1S/C(=C\c2ccc(OCc3ccccc3)cc2)C(=O)N1c1ccc(Cl)cc1Cl
measured: 13.8

Can you look up the measured cytotoxicity at 48 h, 50 µM of N=C1S/C(=C\c2ccc(OCc3ccccc3)cc2)C(=O)N1c1ccccn1 for me?
37.2

Now the compound Cc1cccc(N2C(=N)S/C(=C\c3ccc(OCc4ccccc4)cc3)C2=O)n1
25.1

Entry to check: N=C1S/C(=C\c2ccc(OCc3ccccc3)cc2)C(=O)N1c1ccc(Br)cc1
7.83

# iterate: CC(=O)N1CCc2c(sc(NC(=O)c3ccc(OCc4ccccc4)cc3)c2C(N)=O)C1
11.6

Further, for CC(C)(C)OC(=O)N1CCc2c(sc(NC(=O)c3ccc(Cl)cc3)c2C(N)=O)C1 ?
37.3

* * *

The entries below come with measured ΔTm values attached.
Test system: Mycobacterium tuberculosis
assay.overview: Binding affinity to Mycobacterium tuberculosis AlaDH assessed as protein-ligand stabilization by measuring shift in melting temperature by differential scanning fluorimetry
The reply should be a number in °C, with the unit left off.

# get_value(readout='ΔTm', item= Cc1ccc(C)c(N2C(=N)S/C(=C\c3ccc(OCc4ccccc4)cc3)C2=O)c1 )
4.6

Also check CC(=O)N1CCc2c(sc(NC(=O)c3ccc(Cl)cc3)c2C(N)=O)C1
1.7

Okay, and Cc1cccc(C)c1N1C(=N)S/C(=C\c2ccc(OCc3ccccc3)cc2)C1=O ?
1.4

Input CC(C)(C)OC(=O)N1CCc2c(sc(NC(=O)c3ccc(Cl)cc3)c2C(N)=O)C1
1.8

* * *

assay.overview: Inhibition of Mycobacterium tuberculosis AlaDH using L-alanine as substrate after 20 mins by spectrophotometry
condition.description: read-out: IC50
Below is a list of entries, each paired with its recorded IC50 value.
Express it in nM; write the number only.

cpd.smiles: N=C1S/C(=C\c2ccc(OCc3ccccc3)cc2)C(=O)N1c1ccccc1
IC50 / nM: 2270

Any idea what its IC50 is? The compound is N=C1S/C(=C\c2ccc(OCc3ccccc3)cc2)C(=O)N1c1ncccn1
7520

Next compound: CN1CCc2c(sc(NC(=O)c3ccc(Oc4ccccc4)cc3)c2C(N)=O)C1
730

Please do the same for Cc1ccc(N2C(=N)S/C(=C\c3ccc(OCc4ccccc4)cc3)C2=O)c(C)c1 as well.
6080

What about COc1ccc(NC(=O)N2CCc3c(sc(NC(=O)c4ccc([N+](=O)[O-])s4)c3C(N)=O)C2)cc1 ?
8170

And then NC(=O)c1c(NC(=O)c2ccc(Cl)cc2)sc2c1CCN(Cc1ccccc1)C2 , what is it?
1140

Repeat for the following compound: Cc1ccc(C)c(N2C(=N)S/C(=C\c3ccc(OCc4ccccc4)cc3)C2=O)c1
1340

Follow-up entry: CN1CCc2c(sc(NC(=O)c3ccc(OCc4ccccc4)cc3)c2C(N)=O)C1
1220

Entry CC(=O)N1CCc2c(sc(NC(=O)c3ccc(Cl)cc3)c2C(N)=O)C1 please
640

Try this compound too: CN1CCc2c(sc(NC(=O)c3ccc(Cl)cc3)c2C(N)=O)C1
670

Note, next up: CC(=O)N1CCc2c(sc(NC(=O)C3CC3)c2C(N)=O)C1
20100

Proceed to Cc1cccc(N2C(=N)S/C(=C\c3ccc(OCc4ccccc4)cc3)C2=O)n1
9440
